Tested on: PC14
assay text: Cell-based assay, anti-proliferative activity (Cell Counting Kit-8, 72 hours)
setup conditions: Homo sapiens, PC-14; PC14 cells, 72 hours, Cell Counting Kit-8; read-out: IC50 (μM) PC14
Counter-ions that a name gives are not always drawn.
endpoint label: IC50 (µM)
Give just the number in µM; leave the unit off.

[
  {
    "molecule": "COc1cc(OC)c(-c2cn3ccc(N4CCN(c5ccc(C#N)cn5)CC4)cc3n2)cc1Cl",
    "IC50 (µM)": 1
  },
  {
    "molecule": "COc1cc(OC)c(-c2cn3ccc(-c4ccc(C(=O)O)cc4)cc3n2)cc1Cl",
    "IC50 (µM)": 10
  },
  {
    "molecule": "COc1cc(OC)c(-c2cn3ccc(N4CCN(CCCC(=O)O)CC4)cc3n2)cc1Cl",
    "IC50 (µM)": 10
  }
]

// switching to the query molecule
Annotate the molecule COc1cc(OC)c(-c2cn3ccc(N4CC[C@H](NCc5ccncc5)C4)cc3n2)cc1Cl [Example 298, trihydrochloride] with its measured IC50.
0.79
